Data origin, for the record: paper PMC4006906

Molecular target: H5VN04 trimeric HA (recombinant hemagglutinin) (influenza A virus (H5VN04), UniProt Q6DQ33)
Assay: SPR
assay endpoint: pKd
# log scale: pKd equals minus log10 of the concentration in mol/L

Give recorded pKd. F10 Y98A scFv (scFv, V domains shown) VH: QVQLVQSGAEVKKPGSSVKVSCTSSEVTFSSFAISWVRQAPGQGLEWLGGISPMFGTPNYAQKFQGRVTITADQSTRTAYMDLRSLRSEDTAVYYCARSPSAICSGGTCVFDHWGQGTLVTVSS VL: QPGLTQPPSVSKGLRQTATLTCTGNSNNVGNQGAAWLQQHQGHPPKLLSYRNNDRPSGISERFSASRSGNTASLTITGLQPEDEADYYCSTWDSSLSAVVFGGGTKLTVL
6.46
